System: androgen-dependent LAPC-4 human prostate cancer cell line
Test: WST-1 cell viability assay, LAPC-4, 72 h
Format: cell-based
Conditions: HK-2/LAPC-4, ratio of IC50 values

compound: CC(C)(O)C(=O)Nc1ccc([N+](=O)[O-])c(C(F)(F)F)c1 [HF, hydroxyflutamide, reference compound]
SI (selectivity index): 1.7

compound: Nc1ncc(Cl)nc1C(=O)Nc1ccc(B(O)O)cc1 [8a]
SI (selectivity index): 5.4

compound: O=C(NCc1ccc(B(O)O)cc1)c1cnc(Cl)cn1 [10a]
SI (selectivity index): 3.8

compound: O=C(Nc1ccc(B(O)O)c(F)c1)c1cnc(Cl)cn1 [9a]
SI (selectivity index): 7.2

compound: CC(C)C(=O)Nc1ccc([N+](=O)[O-])c(C(F)(F)F)c1 [Flutamide, flutamide, reference compound]
SI (selectivity index): 1.3

compound: O=C(Nc1ccc(B(O)O)cc1)c1cnc(Cl)cn1 [5a]
SI (selectivity index): 7.0
